Can you tell me TGI for the items I'm about to list?
tested on: SF-295; assay: Human cancer cell line growth inhibition, CNS SF-295; details: CNS SF-295; total growth inhibition

CC(=O)Oc1c2c(cc3c1C(=O)NC1C4OC(C)(C)OC4C(OC(C)=O)C4OC314)OCO2 (stereo not shown) [Compound 6] :: >10 µg/mL

For the 2 compounds below, give their TGI values.
1. O=C1N[C@@H]2C(=C[C@H](O)[C@@H](O)[C@H]2O)c2cc3c(c(O)c21)OCO3 [Compound 2, (+)-narciclasine, reference compound]
2. CC1(C)O[C@@H]2[C@@H](O)[C@@H](O)[C@H]3c4cc5c(c(O)c4C(=O)N[C@H]3[C@@H]2O1)OCO5 [Compound 9]

1. 0.049 µg/mL
2. >10 µg/mL

Consider the compound shown here: COC1c2c([nH]c(=O)c3c(O)c4c(cc23)OCO4)C2OC(C)(C)OC2C1O (stereo not shown) [Compound 7, 1-Methoxy-Isonarciclasine 3,4-acetonide] What is its recorded TGI? >10 µg/mL

---

tested on: DU-145; assay: Human cancer cell line growth inhibition, prostate DU-145; conditions: Homo sapiens, DU-145
measure_name: GI50

Check out these entries, answers already filled in.
CC1(C)O[C@@H]2[C@H](O1)[C@@H](O)C=C1c3cc4c(c(O)c3C(=O)N[C@H]12)OCO4 [Compound 3, Narciclasine 3,4-acetonide] :: > 10 µg/mL
CC1(C)O[C@@H]2[C@@H](O)[C@H]3OC34c3cc5c(c(O)c3C(=O)N[C@H]4[C@@H]2O1)OCO5 (stereo partly drawn) [Compound 10, 1,10b-α-epoxy-narciclasine 3,4-acetonide] :: > 10 µg/mL

// next item, GI50 requested
Consider the compound shown here: CC1(C)O[C@H]2[C@@H]3NC(=O)c4c(cc5c(c4O)OCO5)[C@H]3C3OS(=O)(=O)O[C@@H]3[C@H]2O1 (stereo partly drawn) What is its recorded GI50? > 10 µg/mL

---

test system: DU-145; test: Human cancer cell line growth inhibition, prostate DU-145; conditions: Prostate DU-145; total growth inhibition
measure_name: TGI

Check out these entries, answers already filled in.
CC1(C)O[C@H]2[C@@H]3NC(=O)c4c(cc5c(c4O)OCO5)[C@H]3C3OS(=O)(=O)O[C@@H]3[C@H]2O1 (stereo partly drawn) :: >10 µg/mL
CC1(C)O[C@@H]2[C@@H](O)[C@H]3OC34c3cc5c(c(O)c3C(=O)N[C@H]4[C@@H]2O1)OCO5 (stereo partly drawn) [Compound 10, 1,10b-α-epoxy-narciclasine 3,4-acetonide] :: >10 µg/mL

// next item, TGI requested
Consider the compound shown here: `CC1(C)O[C@@H]2[C@@H](O)[C@@H](O)[C@H]3c4cc5c(c(O)c4C(=O)N[C@H]3[C@@H]2O1)OCO5` What is its recorded TGI? >10 µg/mL
